Catalogue of IC50 values
- assayed_target: integrin alpha5beta1 (Homo sapiens, UniProt P05556+P08648)
- Construct: The integrin alpha5beta1 extracellular domain Fc-fusion was expressed and purified; made in house
- assay_explanation: Alpha5beta1-Fibronectin binding assay (competitive ELISA)
- measurement_context: method of section 1.1; read-out: Group (binding activities to integrin alpha5beta1)
result_type: IC50

1) Cc1cc(C)c(S(=O)(=O)N[C@@H](CNC(=O)CO[C@@H]2C[C@@H](CNc3ccccn3)N(C(=O)CC(C)(C)C)C2)C(=O)O)c(C)c1 : < 0.01 µM
2) O=C(CO[C@@H]1C[C@@H](CNc2ccccn2)N(C(=O)OCc2ccccc2)C1)NC[C@H](NC(=O)c1cc(C(F)(F)F)cc(C(F)(F)F)c1)C(=O)O : > 0.5 µM
3) Cc1cc(C)c(S(=O)(=O)N[C@@H](CNC(=O)CO[C@@H]2C[C@@H](CNc3ccccn3)N(C(=O)OCC(C)C)C2)C(=O)O)c(C)c1 : < 0.01 µM

---

Overview of recorded IC50 for various molecules
- assayed_target: integrin alpha5beta1 (Homo sapiens, UniProt P05556+P08648)
- Construct: The integrin alpha5beta1 extracellular domain Fc-fusion was expressed and purified; made in house
- assay_explanation: Alpha5beta1-Fibronectin binding assay (competitive ELISA)
- measurement_context: inhibition of integrin binding to fibronectin; read-out: IC50 alpha5beta1 in nM
result_type: IC50 (nM)

1. Cc1cc(C)c(S(=O)(=O)N[C@@H](CNC(=O)CO[C@@H]2C[C@@H](CNc3ccccn3)N(S(=O)(=O)Cc3ccccc3)C2)C(=O)O)c(C)c1 : 11.3
2. Cc1ccc(CNC(=O)N2C[C@H](OCC(=O)NC[C@H](NS(=O)(=O)c3c(C)cc(C)cc3C)C(=O)O)C[C@H]2CNc2ccccn2)cc1 : 18.1
3. C#CCOC(=O)N1C[C@H](OCC(=O)NC[C@H](NS(=O)(=O)c2c(C)cc(C)cc2C)C(=O)O)C[C@H]1CNc1ccccn1 : 5.8
4. Cc1cc(C)c(S(=O)(=O)N[C@@H](CNC(=O)CO[C@@H]2C[C@@H](CNc3ccccn3)N(C(=O)NC3CCCC3)C2)C(=O)O)c(C)c1 : 6.6
5. Cc1cc(C)c(S(=O)(=O)N[C@@H](CNC(=O)CO[C@@H]2C[C@@H](CNc3ccccn3)N(C(=O)OCc3ccccc3)C2)C(=O)O)c(C)c1 : 3.7
6. Cc1cc(C)c(C(=O)N[C@@H](CNC(=O)CO[C@@H]2C[C@@H](CNc3ccccn3)N(C(=O)OCc3ccccc3)C2)C(=O)O)c(C)c1 : 2.4
7. CCC(=O)N1C[C@H](OCC(=O)NC[C@H](NS(=O)(=O)c2c(C)cc(C)cc2C)C(=O)O)C[C@H]1CNc1ccccn1 : 11.9

---

Reported pIC50 values are given for each entry in this list.
- assayed_target: integrin alpha5beta1 (Homo sapiens, UniProt P05556+P08648)
- Construct: The integrin alpha5beta1 extracellular domain Fc-fusion was expressed and purified; made in house
- assay_explanation: Alpha5beta1-Fibronectin binding assay (competitive ELISA)
- measurement_context: method of section 1.1; read-out: Group (binding activities to integrin alpha5beta1)
pIC50: −log10 of the molar value.
result_type: pIC50

1. Cc1cc(C)c(S(=O)(=O)N[C@@H](CNC(=O)CO[C@@H]2C[C@@H](CNc3ncccn3)N(C(=O)OCc3ccccc3)C2)C(=O)O)c(C)c1 : < 6.30
2. Cc1cc(C)c(S(=O)(=O)N[C@@H](CNC(=O)CO[C@@H]2C[C@@H](CNc3ccccn3)N(C(=O)OCc3ccccc3)C2)C(=O)O)c(C)c1 : > 8.00
3. O=C(CO[C@@H]1C[C@@H](CNc2ccccn2)N(C(=O)OCc2ccccc2)C1)NC[C@H](NC(=O)C1CCCCC1)C(=O)O : > 8.00
4. CC(C)(C)C(=O)N[C@@H](CNC(=O)CO[C@@H]1C[C@@H](CNc2ccccn2)N(C(=O)OCc2ccccc2)C1)C(=O)O : > 8.00
5. O=C(CO[C@@H]1C[C@@H](CNc2ccccn2)N(C(=O)OCc2ccccc2)C1)NC[C@H](NC(=O)CCc1ccccc1)C(=O)O : 6.30 to 8.00
6. COc1ccnc(NC[C@@H]2C[C@@H](OCC(=O)NC[C@H](NC(=O)C3(C)CCCCC3)C(=O)O)CN2C(=O)CC(C)(C)C)c1 : > 8.00
7. Cc1cccc(C)c1C(=O)N[C@@H](CNC(=O)CO[C@@H]1C[C@@H](CNc2ccccn2)N(C(=O)OCc2ccccc2)C1)C(=O)O : > 8.00
8. CCC(C)(C)C(=O)N[C@@H](CNC(=O)CO[C@@H]1C[C@@H](CNc2ccccn2)N(C(=O)OCc2ccccc2)C1)C(=O)O : > 8.00
9. Cc1cc(C)c(S(=O)(=O)N[C@@H](CNC(=O)CO[C@@H]2C[C@@H](CNc3ccccn3)N(C(=S)Nc3ccc(-c4c5ccc(=O)cc-5oc5cc(O)ccc45)c(C(=O)O)c3)C2)C(=O)O)c(C)c1 : 6.30 to 8.00
10. N[C@@H](CNC(=O)CO[C@@H]1C[C@@H](CNc2ccccn2)N(C(=O)OCc2ccccc2)C1)C(=O)O : < 6.30
11. C#CCOC(=O)N1C[C@H](OCC(=O)NC[C@H](NS(=O)(=O)c2c(C)cc(C)cc2C)C(=O)O)C[C@H]1CNc1ccccn1 : > 8.00
12. COc1cccc(OC)c1C(=O)N[C@@H](CNC(=O)CO[C@@H]1C[C@@H](CNc2ccccn2)N(C(=O)OCc2ccccc2)C1)C(=O)O : > 8.00
13. CC(C)c1cc(C(C)C)c(C(=O)N[C@@H](CNC(=O)CO[C@@H]2C[C@@H](CNc3ccccn3)N(C(=O)OCc3ccccc3)C2)C(=O)O)c(C(C)C)c1 : < 6.30
14. Cc1cc(C)c(S(=O)(=O)N[C@@H](CNC(=O)CO[C@@H]2C[C@@H](CNc3cc[nH]n3)N(C(=O)OCc3ccccc3)C2)C(=O)O)c(C)c1 : < 6.30
15. CCC(=O)N1C[C@H](OCC(=O)NC[C@H](NS(=O)(=O)c2c(C)cc(C)cc2C)C(=O)O)C[C@H]1CNc1ccccn1 : 6.30 to 8.00
16. Cc1cc(C)c(S(=O)(=O)N[C@@H](CNC(=O)CO[C@@H]2C[C@@H](CNc3ccccn3)N(C(=O)NC3CCCC3)C2)C(=O)O)c(C)c1 : > 8.00
17. Cc1cc(C)c(S(=O)(=O)N[C@@H](CNC(=O)CO[C@@H]2C[C@@H](CNc3ccccn3)N(C(=O)CC3CCCC3)C2)C(=O)O)c(C)c1 : 6.30 to 8.00
18. O=C(CO[C@@H]1C[C@@H](CNc2ccccn2)N(C(=O)OCc2ccccc2)C1)NC[C@H](NC(=O)CCCc1ccccc1)C(=O)O : 6.30 to 8.00
19. Cc1cc(C)c(S(=O)(=O)N[C@@H](CNC(=O)CO[C@@H]2C[C@@H](CNc3ccccn3)N(CCCc3ccccc3)C2)C(=O)O)c(C)c1 : 6.30 to 8.00
20. Cc1cc(C)c(C(=O)N[C@@H](CNC(=O)CO[C@@H]2C[C@@H](CNc3ccccn3)N(C(=O)OCc3ccccc3)C2)C(=O)O)c(C)c1 : > 8.00
21. COc1cccc(CC(=O)N2C[C@H](OCC(=O)NC[C@H](NS(=O)(=O)c3c(C)cc(C)cc3C)C(=O)O)C[C@H]2CNc2ccccn2)c1 : 6.30 to 8.00
22. O=C(CO[C@@H]1C[C@@H](CNc2ccccn2)N(C(=O)OCc2ccccc2)C1)NC[C@H](NC(=O)c1ccccc1-c1ccccc1)C(=O)O : 6.30 to 8.00
23. Cc1cc(C)c(CNC(CNC(=O)COC2CC(CNc3ccccn3)N(C(=O)OCc3ccccc3)C2)C(=O)O)c(C)c1 (stereo not drawn) : < 6.30
24. O=C(CO[C@@H]1C[C@@H](CNc2ccccn2)N(C(=O)OCc2ccccc2)C1)NC[C@H](NC(=O)Nc1ccc(-c2ccccc2)cc1)C(=O)O : 6.30 to 8.00

---

This listing pairs compounds with measured pIC50.
- assayed_target: integrin alpha5beta1 (Homo sapiens, UniProt P05556+P08648)
- Construct: The integrin alpha5beta1 extracellular domain Fc-fusion was expressed and purified; made in house
- assay_explanation: Alpha5beta1-Fibronectin binding assay (competitive ELISA)
- measurement_context: method of section 1.1; read-out: Group (binding activities to integrin alpha5beta1)
pIC50: −log10 of the molar value.
result_type: pIC50

1. Cc1cc(C)c(S(=O)(=O)N[C@@H](CNC(=O)CO[C@@H]2C[C@@H](CNc3ccccn3)N(S(=O)(=O)Cc3ccccc3)C2)C(=O)O)c(C)c1 : 6.30 to 8.00
2. CS(=O)(=O)NC(CNC(=O)COC1CC(CNc2ccccn2)N(C(=O)OCc2ccccc2)C1)C(=O)O (stereo not drawn) : < 6.30
3. Cc1ccc(C[C@@H](CC(=O)O)NC(=O)CO[C@@H]2C[C@@H](CNc3ccccn3)N(C(=O)OCc3ccccc3)C2)cc1 : < 6.30
